inhibition at 0.1 µM values, listed per item
- tgt: 11β-hsd-1 enzyme (Homo sapiens, UniProt P28845)
- Sequence (P28845 whole entry, species assumed): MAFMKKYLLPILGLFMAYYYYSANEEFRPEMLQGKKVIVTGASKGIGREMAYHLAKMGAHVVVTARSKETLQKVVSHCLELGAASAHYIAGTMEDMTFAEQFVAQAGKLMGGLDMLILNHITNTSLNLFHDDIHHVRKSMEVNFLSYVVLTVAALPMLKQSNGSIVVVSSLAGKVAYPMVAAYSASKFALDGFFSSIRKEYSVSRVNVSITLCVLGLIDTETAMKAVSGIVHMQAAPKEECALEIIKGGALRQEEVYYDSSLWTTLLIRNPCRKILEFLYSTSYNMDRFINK
- test description: 11β-hsd-1 enzyme assay, percentage of inhibition (3H-cortisone to cortisol, radio-HPLC)
- Format: biochemical
- recorded conditions: compound at 0.1 uM; read-out: % inh @ 0.1 uM
Please state the figure in %; there is no need to write the unit.

Cc1cccc(NS(=O)(=O)c2ccc(-c3ccncc3)cc2)n1 | 74.7
Cc1cccc(NS(=O)(=O)c2ccc(-c3cc(F)c(F)c(F)c3)c(C)c2)n1 | 74
Cc1cccc(NS(=O)(=O)c2ccc(-c3ccc(Cl)cc3)cc2)n1 | 96
Cc1cc(-c2ccc(S(=O)(=O)Nc3ccc4ccccc4n3)cn2)ccc1F | 72.4
Cc1cccc(NS(=O)(=O)N2CCc3ccccc3C2)n1 | 88.3

Consider the molecule Cc1cccc(NS(=O)(=O)c2ccc(-c3cccc(C(C)C)c3)c(C)c2)n1 and give its measured inhibition at 0.1 µM. 81

Consider the molecule Cc1cccc(NS(=O)(=O)N2CCC(c3ccc(F)cc3)CC2)n1 and give its measured inhibition at 0.1 µM. 100

Consider the molecule CCOc1ccccc1-c1ccc(S(=O)(=O)Nc2cccc(C)n2)cc1C and give its measured inhibition at 0.1 µM. 78

Consider the molecule Cc1cccc(NS(=O)(=O)c2ccc(-c3ccc(F)c(F)c3)cc2C)n1 and give its measured inhibition at 0.1 µM. 95

Consider the molecule N#Cc1ccc(-c2ccc(S(=O)(=O)Nc3ccc4ccccc4n3)cn2)cc1 and give its measured inhibition at 0.1 µM. 100

---

- tgt: 11β-hsd-1 enzyme (Homo sapiens, UniProt P28845)
- test description: 11β-hsd-1 enzyme assay, percentage of inhibition (3H-cortisone to cortisol, radio-HPLC)
- Assay type: biochemical
- recorded conditions: 0.1 uM; read-out: % inh @ 0.1 uM
quantity name: inhibition at 0.1 µM (%)
Please state the figure in %; there is no need to write the unit.

Some compounds with known inhibition at 0.1 µM results, for comparison:
O=S(=O)(Nc1ccc2cc[nH]c2c1)c1ccc(-c2ccc(F)cc2)cc1 [Example 57] | 4.5
Cc1cccc(NS(=O)(=O)c2ccc(-c3cccc(F)c3)cc2)n1 [Example 133] | 84.8
Cc1cccc(NS(=O)(=O)Cc2cccc(Cl)c2)n1 [Example 67] | 49.6

Now look at this entry.
Consider the compound COc1ccc(C)nc1NS(=O)(=O)c1ccc(C(F)(F)F)cc1 [Example 89] and give its measured inhibition at 0.1 µM. 3.7

---

- tgt: 11β-hsd-1 enzyme (Homo sapiens)
- test description: 11β-hsd-1 enzyme assay, Kiapp determination (3H-cortisone to cortisol, radio-HPLC)
- Type: biochemical
- recorded conditions: read-out: Ki app
pKi values, listed per item
Bear in mind: pKi is minus log10 of a mol/L concentration; give just that figure.

Some molecules with known pKi results, for comparison:
Cc1cccc(NS(=O)(=O)c2ccc(-c3cc(F)c(F)c(F)c3)cc2C)n1 | 7.92
Nc1cccc(NS(=O)(=O)c2ccc(C(F)(F)F)cc2)n1 | 8.05

Now look at this entry.
Consider the molecule Cc1cccc(NS(=O)(=O)c2ccc(-c3ccc(C#N)cc3)cc2)n1 and give its measured pKi. 8.19

---

- tgt: 11β-hsd-1 enzyme (Homo sapiens, UniProt P28845)
- test description: 11β-hsd-1 enzyme assay, Kiapp determination (3H-cortisone to cortisol, radio-HPLC)
- Format: biochemical
- recorded conditions: apparent Ki, 11β-hsd-1 enzyme; read-out: Ki app
pKi: −log10 of the molar value.
Tag: rule met if measured pKi is not below 8, rule not met if it is.

Solved cases (4 shown):
N#Cc1ccc(C2CCN(S(=O)(=O)Nc3ccc4ccccc4n3)CC2)cc1 [Example 308] | rule met
Cc1cccc(NS(=O)(=O)c2ccc(-c3ccc(C#N)cc3)cc2C)n1 [Example 277] | rule met
Cc1cccc(NS(=O)(=O)c2ccc(-c3cccc(CO)c3)c(C)c2)n1 [Example 226] | rule not met
O=S(=O)(Nc1ccc2ccccc2n1)c1ccc(-c2ccc(F)cc2)nc1 [Example 291] | rule not met

Turning now to a further record.
Is pKi at least 8? Consider Cc1cccc(NS(=O)(=O)c2ccc(-c3ccc(C#N)cc3)c(F)c2)n1 [Example 284] rule met
